In this section we review reported apparent KD of MS2 coat protein values for a set of sequences.
system: MS2 coat protein; assay: apparent KD of MS2 coat protein; designed switch direction (-1 OFF switch, 1 ON switch): 1; higher = weaker reporter binding; details: input ligand: FMN 200 uM
All answers are understood in µM, so give the number only.

In: Entry under review: UUACUCAUGUAAGGAUAUGCAGCCGUUUCGGCUGCAGAAGGUACUAUAAUACAUGAGGAUCACCCAUGUCUCUAUUAUUUAGUU [JL SSNG1 1.43] (Eterna round: R96, puzzle: Same State NG 1) . Reported apparent KD of MS2 coat protein?
Out: 0.151

More entries:
In: Entry under review: GGAAUAUGAUGUUACAUGAGGAUCACCCAUGUAGUGACAACUAAGGAUAUCUGAAAGGAAGGAGAGGAGAAGGUAGGAUCAUAA [AK SSNG3-V2-14] (Eterna round: R96, puzzle: Same State NG 3) . Reported apparent KD of MS2 coat protein?
Out: 0.02

In: Entry under review: GUGCUCGUGUGAGGAUAUGUUGCCGGGUCGGCUGCAGAAGGUACUAUUAUACAUGAGGAUCACCCAUGUCGCUUUUCUCCGGUG [salish99_SSNG1_r04_920] (Eterna round: R96, puzzle: Same State NG 1) . Reported apparent KD of MS2 coat protein?
Out: 0.0983

In: Entry under review: UGGCUCAGACGAGGAUAUAUGUGGUCACAUGAGGAUCACCCAUGUCUCGAGCUUCGGCUCGAGGCAUAGAAGGUGUCUGAGCCU [SSNG2/5-C3] (Eterna round: R96, puzzle: Same State NG 2) . Reported apparent KD of MS2 coat protein?
Out: 0.132

In: Entry under review: CGGGAGAUCGUAGGAUAUCUAGGAUAUGAACGAGGAUCACCCGAGCAGCAUCAGCGCAUCAGAGGAGAGAAGGACGAUCAUGCG [pwkr ssNG2 2F5 2FMN.6] (Eterna round: R96, puzzle: Same State NG 2) . Reported apparent KD of MS2 coat protein?
Out: 0.751
